molecular target: T1, AAV2 (adeno-associated virus 2, UniProt P03135 1-735); test: SPR, AAV amine-coupled to CM5 chip;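 further: nanobodies flowed as analyte at seven concentrations spanning 1–100 nM over immobilized AAV (500–800 RU), kinetic constants derived by fitting the binding curves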
T1 construct: also called adeno-associated virus serotype 2
T1 sequence (P03135 whole entry): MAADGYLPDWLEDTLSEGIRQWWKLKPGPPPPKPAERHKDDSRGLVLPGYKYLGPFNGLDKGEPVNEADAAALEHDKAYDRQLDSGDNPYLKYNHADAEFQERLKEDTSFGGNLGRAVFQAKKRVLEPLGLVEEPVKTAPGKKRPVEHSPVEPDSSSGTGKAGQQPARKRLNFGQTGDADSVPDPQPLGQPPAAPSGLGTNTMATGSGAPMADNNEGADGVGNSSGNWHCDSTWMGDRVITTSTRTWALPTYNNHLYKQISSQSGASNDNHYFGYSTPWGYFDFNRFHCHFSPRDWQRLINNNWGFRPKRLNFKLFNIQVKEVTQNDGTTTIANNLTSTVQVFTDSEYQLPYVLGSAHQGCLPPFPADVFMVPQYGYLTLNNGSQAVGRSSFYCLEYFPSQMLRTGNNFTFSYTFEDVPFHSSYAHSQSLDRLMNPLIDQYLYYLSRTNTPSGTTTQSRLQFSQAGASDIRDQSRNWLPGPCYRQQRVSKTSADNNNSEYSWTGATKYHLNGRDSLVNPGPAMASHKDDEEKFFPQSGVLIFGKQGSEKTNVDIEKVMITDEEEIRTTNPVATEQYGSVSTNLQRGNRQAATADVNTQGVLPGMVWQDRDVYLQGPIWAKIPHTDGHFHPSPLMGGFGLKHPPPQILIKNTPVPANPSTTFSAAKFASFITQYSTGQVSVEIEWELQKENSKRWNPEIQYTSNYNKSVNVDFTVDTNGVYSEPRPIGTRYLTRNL
READOUT_TYPE: Kd (nM)
Respond numerically; units are nM and should not be typed.

For reference, reported Kd for A4-090 (VHH) VHH: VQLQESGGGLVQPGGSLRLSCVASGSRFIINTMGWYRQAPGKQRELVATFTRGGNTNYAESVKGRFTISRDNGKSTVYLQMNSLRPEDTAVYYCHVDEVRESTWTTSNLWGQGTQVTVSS stands at 6.83

For reference, reported Kd for A4-077 (VHH) VHH: VQLQESGGGLVQPGGSLRLSCAASGSMFSINIMGWYRQAPGKQREFVATITRGGSTNYADFVKGRFTISRDNAKNTVYLQMNSLRPEDTAVYYCHVDELRDSSWTTSNLWGQGTQVTVSS stands at 4.63
